Below, each entry is listed with its recorded Anti-CD28 Fab signal (phage binding ELISA).
Molecular target: Anti-CD28 Fab (SEQ ID NOs: 696, 697)
Sequence (VH, as listed by the source, chain 1 of 2): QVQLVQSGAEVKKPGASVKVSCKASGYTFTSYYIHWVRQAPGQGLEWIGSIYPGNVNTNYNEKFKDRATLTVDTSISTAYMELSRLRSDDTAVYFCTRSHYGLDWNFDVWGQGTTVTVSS
Sequence (VL, as listed by the source, chain 2 of 2): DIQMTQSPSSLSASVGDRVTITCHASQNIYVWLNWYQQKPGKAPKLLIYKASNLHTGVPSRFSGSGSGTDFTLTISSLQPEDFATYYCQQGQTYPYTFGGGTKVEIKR
Experiment: phage binding ELISA; biotinylated anti-CD28 Fab captured on neutravidin plate, clonal phage supernatant, anti-M13 HRP detection
Where no end group is shown, it is not given here.

BINDER: YCEGHLPEYMFKCL (peptide, not shown: large carriers, cysteine pairing not given here; also: displayed on phage as fusion to pIII, linker, pIII sequence and order not given here, Clonal phage supernatant of the Peptide-87 optimisation library) [Phage-510]
RESULT: 2.4
--
BINDER: YCDGHLPEYMNKCL (peptide, not shown: large carriers, Clonal phage supernatant of the Peptide-87 optimisation library) [Phage-505]
RESULT: 2.43

Next binder, Anti-CD28 Fab signal (phage binding ELISA) to be filled in.
Task item: # lookup: Anti-CD28 Fab signal (phage binding ELISA) of YCDGHLPQYMAQCL (peptide, not shown: large carriers, cysteine pairing not given here; also: displayed on phage as fusion to pIII, linker, pIII sequence and order not given here, Clonal phage supernatant of the Peptide-87 optimisation library) [Phage-511]
Reply: 2.4
